Hey, just so you know, these numbers are from PubChem BioAssay (NCI).

Tested on: SF-295 CNS
Experiment: NCI tumour cell line growth inhibition, 48 h
MEASURE: TGI

Example entries begin here.
compound="O=C(O)c1cc(O)c2c(c1)C(C1c3cc(C(=O)O)cc(O)c3C(=O)c3c(OC4OC(CO)C(O)C(O)C4O)cccc31)c1cccc(OC3OC(CO)C(O)C(O)C3O)c1C2=O (stereo not drawn)" measured="> 100 µM"
compound=CCOC(=O)C1=C(Nc2cccc(OC)c2)OCC1=O measured="> 100 µM"

Okay, next one:
[in] Please indicate TGI recorded for CCOC(=O)C(N=Nc1ccc(S(N)(=O)=O)cc1)C(C)=O (stereo not drawn)
[out] > 100 µM

###

Form field: TGI (one value per entry).
System: OVCAR-3 ovarian
Assay: NCI tumour cell line growth inhibition, 48 h

These solved cases illustrate the format of a correct answer.
molecule=O=c1c(-c2ccccc2)c(SCCCN2CCN(c3cccc(Cl)c3)CC2)n(-c2ccccc2)c(=S)n1-c1ccccc1 measured="> 100 µM"
molecule="CC(=O)OCC1OC(Nc2ncc(-c3ccc(C)cc3)s2)C(OC(C)=O)C(OC(C)=O)C1OC(C)=O (stereo not drawn)" measured="> 88.1 µM"
molecule="CC1(C#N)CC(C)(C)C(/C=C2/CC(C)(C)C(/C=C3/OC(=N)CC3(C)C)=N2)=N1 (stereo not drawn)" measured="45.8 µM"
molecule=COC(=O)c1ccc(/C=C2\N=C(C)OC2=O)cc1 measured="> 100 µM"
molecule="Cc1cccc2c1[C@]13OC(C)[C@]4(C)CC5OC(=O)[C@@]1(C)[C@@H]5[C@]34C(=O)O2 (stereo partly drawn)" measured="> 100 µM"
molecule=N#CC(C#N)=c1[nH]c2cccc3c2-c2c(cccc2c3=C(C#N)C#N)[nH]1 measured="> 100 µM"
molecule=c1ccc2c3ccn4cc5c(cc4c-3nc2c1)CCCC5 measured="8.84 µM"

# evaluate next
[in] Please respond with reported TGI (system OVCAR-3 ovarian) for CC(=O)OCC1OC([S-])C(OC(C)=O)C(OC(C)=O)C1OC(C)=O.CC[PH+](CC)CC.CC[PH+](CC)CC.[Au].[Au] (stereo not drawn) .
[out] 1.19 µM

###

Items are presented alongside their recorded TGI.
Test system: T-47D breast
Assay: NCI tumour cell line growth inhibition, 48 h

[in] Consider the molecule `CCN(CC)c1ccc2cc(-c3nnc(-c4ccccc4)o3)c(=O)oc2c1` and give its recorded TGI.
[out] > 71.4 µM

[in] Input `COc1ccc2c(c1)CCc1c-2[nH]c2ccc(OC)cc12` , output reported TGI.
[out] > 100 µM

[in] Read off the recorded TGI for CCC1OC2C(CC=C(C)C)=C3OC(C)(O)C(C)(CC)C(OC(=O)c4ccccc4)C3=C3OC(=O)C=C1C32 (stereo not drawn)
[out] > 100 µM

###

Tested on: RPMI-8226 leukemia
Test: NCI tumour cell line growth inhibition, 48 h; in the data active means GI50 below about 0.43 µM; inactive means the rest
Allowed answers: active, inactive

Illustrative cases are given below, each with its answer.
molecule=CCN(CC)CCNCC(=O)Oc1ccc(/C=C/C(=O)CC(=O)/C=C/c2ccc(OC(=O)CNCCN(CC)CC)c(OC)c2)cc1OC assay_system="RPMI-8226 leukemia" class_assignment=inactive
molecule=Cc1sc2nc(NCCc3c[nH]c4ccc(Cl)cc34)[nH]c(=O)c2c1C assay_system="RPMI-8226 leukemia" class_assignment=inactive
molecule=Cc1[nH][nH]c(=O)c1C=Nc1ccc(-c2nc3ccccc3[nH]2)cc1 assay_system="RPMI-8226 leukemia" class_assignment=inactive
molecule=O=c1[nH]c2cc(Cl)ccc2n1C1CCN(CCCC(c2ccc(F)cc2)c2ccc(F)cc2)CC1 assay_system="RPMI-8226 leukemia" class_assignment=inactive
molecule=NC1CCCC[C@H]1N.N[C@@H]1CCCC[C@@H]1N.O=C(P(=O)([O-])[O-])P(=O)([O-])[O-].[Pt+4].[Pt+4] assay_system="RPMI-8226 leukemia" class_assignment=inactive
molecule=CC(=O)Oc1ccccc1C(=O)N=C1[Se]CCN1C(=O)c1ccccc1OC(C)=O assay_system="RPMI-8226 leukemia" class_assignment=inactive
molecule=O=C1c2ccn(CCCCNC(CO)(CO)CO)c2C(=O)c2c1c(O)c1ccccc1c2O assay_system="RPMI-8226 leukemia" class_assignment=inactive
molecule=COc1ccc(-n2cc(-c3ccc(Cl)c(Cl)c3)nc2SCc2cccc(C#N)c2)cc1 assay_system="RPMI-8226 leukemia" class_assignment=inactive

[in] Assay outcome for CCOC(=O)C1=C(C)N(N)C(=S)NC1c1ccc(C)cc1 (stereo not given) : what was it?
[out] inactive

[in] Record lookup: outcome of this test for CC(=O)OCC1OC([S-])C(OC(C)=O)C(OC(C)=O)C1OC(C)=O.CC[PH+](CC)CC.CC[PH+](CC)CC.[Au].[Au] (stereo not given) ?
[out] active

[in] Per the records of this test, what outcome belongs to `C#C[C@]1(O)CC[C@H]2[C@@H]3CC=C4c5sc(Nc6ccccc6)nc5CC[C@]4(C)[C@H]3CC[C@@]21C` ?
[out] active

[in] Dear all, I need the recorded test outcome for COc1cc(NC(C)CCCN)c2nccc(C)c2c1OC (stereo not given) , thank you.
[out] inactive

[in] What did the test return for `Nc1ccncc1/C=C1/C(=O)Nc2ccccc21` ?
[out] inactive

[in] In this assay, the call recorded for `Cc1n(Cc2ccc3ccccc3c2)cc[n+]1Cc1ccc2ccccc2c1` was what?
[out] active

[in] Could you check what this test reported for `Cc1ccc(N(CSc2ccc(Cl)cc2)CSc2ccc(Cl)cc2)cc1` ?
[out] inactive
